Value source: PubChem BioAssay AID1851

Below, each entry is listed alongside its reported activity, negative = inhibition.
# experimental-target: Cytochrome P450 1A2 (Homo sapiens) (UniProt P05177)
# Sequence (P05177 whole entry, looked up): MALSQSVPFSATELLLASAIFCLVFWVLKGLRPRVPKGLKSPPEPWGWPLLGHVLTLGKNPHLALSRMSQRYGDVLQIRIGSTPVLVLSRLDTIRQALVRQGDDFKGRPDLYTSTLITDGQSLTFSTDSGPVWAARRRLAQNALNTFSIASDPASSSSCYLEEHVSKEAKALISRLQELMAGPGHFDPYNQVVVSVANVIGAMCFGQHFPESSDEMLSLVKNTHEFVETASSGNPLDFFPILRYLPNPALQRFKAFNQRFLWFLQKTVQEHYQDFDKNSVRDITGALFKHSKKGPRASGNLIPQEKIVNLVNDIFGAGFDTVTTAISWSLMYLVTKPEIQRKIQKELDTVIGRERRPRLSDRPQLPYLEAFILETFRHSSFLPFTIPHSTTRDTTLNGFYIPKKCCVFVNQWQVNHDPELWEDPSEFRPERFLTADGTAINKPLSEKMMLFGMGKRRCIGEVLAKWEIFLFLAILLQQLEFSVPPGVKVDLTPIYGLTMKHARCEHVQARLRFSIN
# assay-name: Cytochrome panel assay with activity outcomes; as to activity, negative = inhibition: % is scaled to controls: 0 for no effect and ±100 for the full control effect
# details: recombinant CYP, pro-luciferin dealkylation, luminescence, p450-cyp1a2; series mostly up to 57.1 µM
In all, about 16,000 compounds went through this assay and about 5,700 (36%) were called active. About 24% were inconclusive and are not listed. The list shows a part of the results.

- O=C(O)C/C(=C\c1ccco1)C(=O)O: -11.8% [at 2.29 µM] (inactive)
- Oc1c(CN2CCOCC2)ccc(CN2CCOCC2)c1O: -11.9% [at 2.29 µM] (inactive)
- Nc1ccn([C@H]2O[C@@H](COP(=O)(O)O)[C@@H](O)[C@H]2O)c(=O)n1: -23.3% [at 11.4 µM] (inactive)

(Q) What does the data say about its activity, negative = inhibition? Entry: C[C@@H](c1ccccc1)N1C(=O)[C@H]2[C@H]3[C@H](O)[C@H](O)C/C(=N/OC[C@@H](O)COCc4ccco4)[C@H]3CC[C@@H]2C1=O
(A) -3.98% [at 11.4 µM] (inactive)

(Q) If you can, please state the reported activity, negative = inhibition value of CC(=O)OC[C@@H]1O[C@@H](O/N=C2/C[C@@H](O)[C@@H](O)[C@@H]3[C@@H]4C(=O)N([C@@H](C)c5ccccc5)C(=O)[C@H]4CC[C@@H]23)[C@H](OC(C)=O)[C@H](OC(C)=O)[C@@H]1OC(C)=O .
(A) 4.64% [at 11.4 µM] (inactive)

(Q) // lookup activity, negative = inhibition for COc1ccc(Cc2ccccc2C(=O)O)c2ccccc12
(A) 2.81% [at 2.29 µM] (inactive)

(Q) Any idea what activity, negative = inhibition was measured for O=C1c2ccccc2N[C@H](c2cc(Cl)cc(Cl)c2O)N1CCc1ccccn1 ?
(A) 5.81% [at 2.29 µM] (inactive)

(Q) Entry C=CC[C@@H]1C=C[C@@H](O/N=C\C[C@@H]2C=C[C@H](OC(C)=O)[C@H](COC(C)=O)O2)[C@@H](CO)O1 has what activity, negative = inhibition?
(A) -8.91% [at 11.4 µM] (inactive)

---

# experimental-target: Cytochrome P450 1A2 (Homo sapiens)
# assay-name: Cytochrome panel assay with activity outcomes
# details: recombinant CYP, pro-luciferin dealkylation, luminescence, p450-cyp1a2; series mostly up to 57.1 µM
The campaign covered roughly 16,000 compounds. About 5,700 (36%) were called active. Inconclusive results (about 24%) are left out. The call rests on the fitted dose curve; in most records, active means well fitted curve in the direction sought with a large enough effect; inconclusive means small, poorly fitted or top-dose-only effect, or effect the other way; inactive means no such curve, though single readings can be large or run the other way. Some of the results follow.
Result category, one only: active, inactive

* COC(=O)c1scc(C)c1NC(=O)Cc1ccccc1 | active
* Clc1ccc(Cl)c(Nc2ccnc(SCc3ccccc3)n2)c1 | active
* Cc1noc(C)c1C(=O)N1CCC[C@@]2(CCN(C(=O)NC(C)C)C2)C1 | inactive
* Cc1cccc(Nc2cc(Cl)nc(SCC(=O)O)n2)c1C | inactive
* O=C(c1ccncc1)N1CCC2(CC1)CN(Cc1cc(C(F)(F)F)cc(C(F)(F)F)c1)C2 | inactive

(Q) Field: outcome | Entry: O=C(NCCc1cccs1)C1CC(c2c(Cl)cccc2Cl)=NO1 (stereo not given)
(A) active

(Q) Hey, what did the test say about COC(=O)N1CCC2(CCCN(C(=O)Nc3ccccc3)C2)CC1 ?
(A) inactive

(Q) Identify the outcome logged in this assay for the molecule shown: Cc1cccc(C)c1NC(=O)CS(=O)CC(=O)NCCCc1ccccc1 (stereo not given)
(A) inactive

(Q) Kindly provide the recorded test outcome for the following molecule: O=C(Nc1cccc(F)c1)N1CC2(CCN(C(=O)c3cc(C(F)(F)F)cc(C(F)(F)F)c3)CC2)C1
(A) inactive

(Q) Assay result, entry CC(C)OCCCN1CN(S(=O)(=O)c2cccc(Cl)c2)c2nc3ccccc3nc21 — outcome?
(A) active

---

# experimental-target: Cytochrome P450 1A2 (Homo sapiens) (UniProt P05177)
# assay-name: Cytochrome panel assay with activity outcomes
# details: recombinant CYP, pro-luciferin dealkylation, luminescence, p450-cyp1a2; series mostly up to 57.1 µM
Screen size: about 16,000 compounds; about 5,700 (36%) were called active. Not shown: some 24% with an inconclusive outcome. Calls follow the shape of the dose curve; as a rule, active = well fitted curve in the direction sought with a large enough effect; inconclusive = small, poorly fitted or top-dose-only effect, or effect the other way; inactive = no such curve, though single readings can be large or run the other way. The list shows a part of the results.
Output constraint: value belongs to active, inactive

Sample answers from the record:
- Cc1ccccc1C(C(=O)NCc1ccccc1)N(Cc1ccco1)C(=O)c1ccccn1 (stereo not drawn): inactive
- COC(=O)N1CCC2(CCN(Cc3ccccc3OC)CC2)CC1: inactive
- Cc1sc(NC(=O)c2ccco2)c(C(c2ccncc2)N2CCOCC2)c1C (stereo not drawn): inactive
- O=C(c1ccco1)N1CCN(c2cc(=O)n(C3CCCCC3)c(=O)[nH]2)CC1: inactive
- Cc1sc(NC(=O)c2ccco2)c(C(c2cccnc2)N2CCN(C)CC2)c1C (stereo not drawn): inactive
- O=C(O)c1ccc2c(c1)C(=O)N(C(Cc1ccc(O)cc1)C(=O)O)C2=O (stereo not drawn): inactive
- Oc1ccccc1C1Nc2cccc3cccc(c23)N1: active
- COC(=O)N1CCC2(CCCN(Cc3ccccc3OC)C2)CC1: inactive
- COc1cc2c(cc1NC(=O)c1cc(-c3cccnc3)nc3ccc(C)cc13)oc1ccccc12: active
- COc1ccc(NC(=O)c2cc(-c3cccnc3)nc3ccc(C)cc23)cc1OC: inactive

(Q) Please state the recorded outcome for this molecule: COc1cc2c(cc1NC(=O)Nc1ccccc1)oc1ccccc12
(A) active

(Q) Please share the test call associated with O=C(O)/C(=C/c1c(C(=O)O)[nH]c2cc(Cl)cc(Cl)c12)c1ccccc1 .
(A) active

(Q) Any idea what this test logged for COc1ccccc1CC(=O)Nc1cc2oc3ccccc3c2cc1OC ?
(A) active

(Q) Hi team, can someone confirm the assay call for COc1ccccc1CCn1c(=O)c(-c2cn(C)c3ccccc23)nc2cncnc21 ?
(A) active

(Q) What outcome does the record of this test show for Cc1ccccc1C(=O)c1c[nH]c(C(=O)NCc2cccs2)c1 ?
(A) active

(Q) // param item: Cc1ccc(S(=O)(=O)NCc2ccccc2)cc1 ; yields the recorded call
(A) active

(Q) // outcome(item) with item = CCC(=O)N(Cc1ccco1)c1nc(-c2ccccc2)cs1
(A) active

(Q) // outcome(item) with item = COc1cc(C)c(Br)cc1S(=O)(=O)NCc1ccccc1
(A) active

(Q) Could you kindly confirm the outcome this assay logged for N[C@H](C(=O)O)c1ccc(C(=O)O)c(O)c1 ?
(A) inactive

(Q) Please let me know the test result on file for O=[N+]([O-])c1ccc(-c2cnc(SCc3ccccc3Cl)[nH]2)cc1 .
(A) active

(Q) Any idea what this test logged for Cc1cccc(OCCn2c(S(=O)(=O)O)nc3ccccc32)c1 ?
(A) inactive

(Q) What call does the record list for Cc1cc(N2C(=O)C(O)=C(C(=O)c3cccs3)C2c2cccc(O)c2)no1 (stereo not drawn) ?
(A) inactive

(Q) Hello, I am checking results. What call was entered for NCCS(=O)O ?
(A) inactive

---

Below is a list of entries, each paired with its recorded activity, negative = inhibition value.
# experimental-target: Cytochrome P450 1A2 (Homo sapiens)
# assay-name: Cytochrome panel assay with activity outcomes; as to activity, negative = inhibition: % is scaled to controls: 0 for no effect and ±100 for the full control effect
# details: recombinant CYP, pro-luciferin dealkylation, luminescence, p450-cyp1a2; series mostly up to 57.1 µM
# Description: The P450 gene superfamily is involved in the metabolism and clearance of xenobiotics. This assay used various human CYP P450 isozymes to measure the dealkylation of various pro-luciferin substrates to luciferin. The luciferin is then measured by luminescence after the addition of a luciferase detection reagent. […] Inhibitors and some substrates limit the production of luciferin, and decrease measured luminescence. […] 8, Detection, 1 sec, ViewLux luminescent read […]
Among all 16,000 compounds or so, about 5,700 (36%) were called active. Inconclusive results (about 24%) are left out. The list shows a part of the results.

* OC[C@@H]1O[C@@H](n2cnc3c(SCc4ccccc4)ncnc32)[C@@H](O)[C@H]1O | -17.2% [at 2.29 µM] (inactive)
* Cn1ncc2c(Cl)ncnc21 | -5.24% [at 11.4 µM] (inactive)
* CCN1C(=O)[C@H]2[C@H]3[C@H](O)[C@H](O)C/C(=N/O[C@@H]4O[C@H](COC(C)=O)[C@@H](OC(C)=O)[C@H](OC(C)=O)[C@H]4OC(C)=O)[C@@H]3CC[C@@H]2C1=O | -2.53% [at 11.4 µM] (inactive)
* O=C(Oc1ccc2c(c1)CN(Cc1ccccc1)CO2)c1ccccc1 | -14.3% [at 2.29 µM] (inactive)

Next item in the queue.
(Q) Please look up its activity, negative = inhibition: CCCCOC(OCCCC)[C@H](O)CSc1ccc2ccccc2c1
(A) -1.2% [at 11.4 µM] (inactive)

---

# experimental-target: Cytochrome P450 1A2 (Homo sapiens) (UniProt P05177)
# assay-name: Cytochrome panel assay with activity outcomes; as to activity, negative = inhibition: % is scaled to controls: 0 for no effect and ±100 for the full control effect
# details: recombinant CYP, pro-luciferin dealkylation, luminescence, p450-cyp1a2; series mostly up to 57.1 µM
# Protocol: The P450 gene superfamily is involved in the metabolism and clearance of xenobiotics. This assay used various human CYP P450 isozymes to measure the dealkylation of various pro-luciferin substrates to luciferin. The luciferin is then measured by luminescence after the addition of a luciferase detection reagent. […] Inhibitors and some substrates limit the production of luciferin, and decrease measured luminescence. […] 8, Detection, 1 sec, ViewLux luminescent read […]
The campaign covered roughly 16,000 compounds. About 5,700 (36%) were called active. Not shown: some 24% with an inconclusive outcome. The list shows a part of the results.
activity, negative = inhibition values, listed per item

Known results for molecules:
- C=CC[C@@H]1C=C[C@H](ON=C(C)C)[C@H](CO)O1: 3.87% [at 11.4 µM] (inactive)
- CC1(C)O[C@H]2[C@@H](O1)[C@@H](On1nnc3ccc(Cl)cc31)O[C@@H]2[C@@H]1COC(C)(C)O1: -10.9% [at 2.29 µM] (inactive)

(Q) Need activity, negative = inhibition of Nc1nc(=O)c2[nH]cnc2n1O , thanks.
(A) -12.4% [at 11.4 µM] (inactive)

(Q) Entry under review: CC(C)CO/N=C1/C[C@@H](O)[C@@H](O)[C@@H]2[C@H]3C(=O)N(c4ccc(F)cc4F)C(=O)[C@@H]3CC[C@@H]12 . Reported activity, negative = inhibition?
(A) -0.174% [at 11.4 µM] (inactive)

(Q) Look at this molecule and give its reported activity, negative = inhibition. CC(C)=NOC[C@@H](O)COCc1ccco1
(A) 4.83% [at 11.4 µM] (inactive)

(Q) Reported activity, negative = inhibition, molecule O=C(O)c1ccc(CNCc2ccccc2)cc1 : ____
(A) -10.8% [at 11.4 µM] (inactive)

(Q) I'd like to know its activity, negative = inhibition. The molecule in question is C#CCCCO/N=C1/C[C@@H](O)[C@@H](O)[C@@H]2[C@@H]3C(=O)N(CC)C(=O)[C@H]3CC[C@@H]12
(A) -3.56% [at 11.4 µM] (inactive)

(Q) Find the recorded activity, negative = inhibition belonging to CN(C)CCCN1c2ccccc2Sc2ccc3ccccc3c21 and report it.
(A) -2.18% [at 2.29 µM] (inactive)

(Q) May I ask what activity, negative = inhibition has been recorded for Cc1ccc(S(=O)(=O)O[C@@H]2[C@H]([C@@H]3COC(C)(C)O3)O[C@H]3OC(C)(C)O[C@@H]32)cc1 ?
(A) -15.9% [at 11.4 µM] (inactive)

(Q) Sample COC(=O)[C@H](CCSC)NC(=O)C/C=C\[C@@H](C)[C@@H](CO)OC — what was its activity, negative = inhibition?
(A) -1.07% [at 11.4 µM] (inactive)

(Q) Find the recorded activity, negative = inhibition belonging to NC(N)=N/N=C\c1ccc(C2CCNCC2)cc1 and report it.
(A) -12% [at 2.29 µM] (inactive)

(Q) For the molecule COc1ccc(COC(=O)N/N=C2/C[C@@H](O)[C@@H](O)[C@@H]3[C@@H]4C(=O)N(C(C)(C)C)C(=O)[C@H]4CC[C@H]23)cc1 , what activity, negative = inhibition is on record?
(A) -10.2% [at 11.4 µM] (inactive)

(Q) Which activity, negative = inhibition value belongs to COc1ccc2[nH]c3cc4c(=O)c5cc(OC)ccc5[nH]c4cc3c(=O)c2c1 ?
(A) -6.02% [at 2.29 µM] (inactive)

(Q) Given C#CCCCO/N=C1/C[C@@H](O)[C@@H](O)[C@@H]2[C@@H]3C(=O)N(C[C@@H]4CCCO4)C(=O)[C@H]3CC[C@H]12 , state its recorded activity, negative = inhibition.
(A) -2.74% [at 11.4 µM] (inactive)

(Q) Name the reported activity, negative = inhibition value associated with the molecule COc1cc2c3cc1Oc1c(OC)c(OC)cc4c1[C@@H](Cc1ccc(O)c(c1)Oc1ccc(cc1)C[C@@H]3N(C)CC2)CN(C)C4
(A) -11.1% [at 11.4 µM] (inactive)
